System tested: Pm-NanK (Pasteurella multocida, UniProt Q9CKB3, M259T)
Sequence (Q9CKB3 1-297 M259T): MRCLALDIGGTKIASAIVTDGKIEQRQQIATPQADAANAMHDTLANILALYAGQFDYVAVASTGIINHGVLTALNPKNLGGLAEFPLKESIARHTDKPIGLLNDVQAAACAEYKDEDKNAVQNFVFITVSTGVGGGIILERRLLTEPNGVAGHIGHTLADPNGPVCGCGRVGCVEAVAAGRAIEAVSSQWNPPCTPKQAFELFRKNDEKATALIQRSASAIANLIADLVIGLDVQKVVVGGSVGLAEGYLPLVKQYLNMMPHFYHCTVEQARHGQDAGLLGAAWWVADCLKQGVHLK
Assay remarks: Isothermal titration calorimetry
Type: binding, P. multocida
Study conditions: in the presence of ManNAc

{"Compound": "Nc1ncnc2c1ncn2[C@@H]1O[C@H](COP(=O)(O)OP(=O)(O)NP(=O)(O)O)[C@@H](O)[C@H]1O [AMPPNP, adenylyl-imidodiphosphate]", "Unit name": "µM", "Kd": 112}

----------
System tested: Hi-NanK (Haemophilus influenzae)
Assay remarks: Isothermal titration calorimetry
Format: binding, H. influenzae
Study conditions: Hi-NanK wild type, ligand alone
pKd: −log10 of the molar value.

{"Molecule": "Nc1ncnc2c1ncn2[C@@H]1O[C@H](COP(=O)(O)OP(=O)(O)NP(=O)(O)O)[C@@H](O)[C@H]1O [AMPPNP, adenylyl-imidodiphosphate]", "System tested": "Hi-NanK (Haemophilus influenzae)", "pKd": 4.28}
